- Test system: MT300 GBM cells
- protocol: Antiproliferative activity, CellTiter Glo assay, MT300 GBM cells
- Type: cell-based
- particulars: 72 h, read-out: IC50 (proliferation)
property: IC50 (µM)

line_notation=N#Cc1cc(Cc2ccccc2)sc1NC(=O)COc1ccccc1 property=IC50 result_value=0.085
